Assay Target: Histone deacetylase 1 (Homo sapiens)
Sequence (Q13547 whole entry): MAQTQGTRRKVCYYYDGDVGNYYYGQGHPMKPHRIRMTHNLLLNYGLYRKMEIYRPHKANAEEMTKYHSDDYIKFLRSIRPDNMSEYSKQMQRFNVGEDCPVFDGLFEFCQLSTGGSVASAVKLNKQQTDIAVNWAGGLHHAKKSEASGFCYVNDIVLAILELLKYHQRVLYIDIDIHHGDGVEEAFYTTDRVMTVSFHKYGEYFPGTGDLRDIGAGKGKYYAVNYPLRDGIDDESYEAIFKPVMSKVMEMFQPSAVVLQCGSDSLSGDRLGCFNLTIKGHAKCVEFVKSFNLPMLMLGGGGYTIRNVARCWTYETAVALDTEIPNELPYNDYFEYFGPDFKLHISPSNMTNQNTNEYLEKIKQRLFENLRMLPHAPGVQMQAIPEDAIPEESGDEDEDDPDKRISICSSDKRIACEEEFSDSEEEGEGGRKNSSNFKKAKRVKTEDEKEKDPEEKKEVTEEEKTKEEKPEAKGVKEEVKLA
Answer each item with its documented IC50.
Could you give me the number in nM? Just the number is fine.

// query Would you please give the reported IC50 of CCCCN(Cc1ccc(C(=O)NO)cc1)C(=O)Nc1cccc(N(C)C)c1 with Histone deacetylase 1 (Homo sapiens)?
// result 604

// query Write down measured IC50 (Histone deacetylase 1 (Homo sapiens)) for this compound. O=C(NCc1ccc(C(=O)NO)cc1)Nc1ccc(CO)cc1
// result 1060

* * *

Assay Target: Protein deacetylase HDAC6 (Homo sapiens)
Sequence (Q9UBN7 whole entry): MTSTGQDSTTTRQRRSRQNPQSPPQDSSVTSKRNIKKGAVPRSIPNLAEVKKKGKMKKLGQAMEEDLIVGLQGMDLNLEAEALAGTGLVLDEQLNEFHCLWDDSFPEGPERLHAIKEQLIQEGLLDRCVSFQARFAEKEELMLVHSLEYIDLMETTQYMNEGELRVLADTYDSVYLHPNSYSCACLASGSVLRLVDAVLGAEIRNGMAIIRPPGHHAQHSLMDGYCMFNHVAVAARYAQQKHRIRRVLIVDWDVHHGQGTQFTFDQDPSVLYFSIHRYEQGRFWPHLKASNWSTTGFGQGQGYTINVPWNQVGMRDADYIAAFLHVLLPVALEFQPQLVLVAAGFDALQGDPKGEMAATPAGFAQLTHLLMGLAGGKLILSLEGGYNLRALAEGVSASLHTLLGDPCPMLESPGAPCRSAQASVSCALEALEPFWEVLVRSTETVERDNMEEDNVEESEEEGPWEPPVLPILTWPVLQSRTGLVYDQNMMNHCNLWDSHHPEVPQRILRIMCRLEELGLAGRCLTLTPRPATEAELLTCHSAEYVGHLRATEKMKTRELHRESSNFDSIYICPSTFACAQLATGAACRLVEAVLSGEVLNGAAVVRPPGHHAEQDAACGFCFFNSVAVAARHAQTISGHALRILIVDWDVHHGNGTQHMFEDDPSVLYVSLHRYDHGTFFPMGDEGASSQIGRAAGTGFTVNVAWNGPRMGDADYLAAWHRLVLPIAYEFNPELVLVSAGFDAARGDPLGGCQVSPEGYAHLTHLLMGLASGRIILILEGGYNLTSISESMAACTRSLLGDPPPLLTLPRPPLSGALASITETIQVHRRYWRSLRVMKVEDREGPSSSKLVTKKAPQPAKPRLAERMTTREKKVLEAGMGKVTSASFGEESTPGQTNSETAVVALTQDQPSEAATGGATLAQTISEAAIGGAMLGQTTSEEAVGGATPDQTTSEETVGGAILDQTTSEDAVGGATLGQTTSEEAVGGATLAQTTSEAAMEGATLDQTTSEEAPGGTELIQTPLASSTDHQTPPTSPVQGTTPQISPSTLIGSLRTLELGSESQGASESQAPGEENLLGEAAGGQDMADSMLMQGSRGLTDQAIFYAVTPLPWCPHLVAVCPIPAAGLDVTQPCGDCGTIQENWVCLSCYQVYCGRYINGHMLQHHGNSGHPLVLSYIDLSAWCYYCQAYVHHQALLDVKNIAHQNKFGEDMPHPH
Could you please report measured pIC50 for the items listed next?
To interpret pIC50, take it as minus log10 of a concentration measured in moles per litre.

// query Consider the compound CCCCN(Cc1ccc(C(=O)NO)cc1)C(=O)Nc1cccc(N(C)C)c1 tested on Protein deacetylase HDAC6 (Homo sapiens); state its pIC50.
// result 8.21

// query Please tell me the measured pIC50 for O=C(NCc1ccc(C(=O)NO)cc1)Nc1ccc(CO)cc1 ; system: Protein deacetylase HDAC6 (Homo sapiens).
// result 8.08
